The measurements presented in this section are drawn from ChEMBL document CHEMBL2218924.

Target Or System: Dual specificity mitogen-activated protein kinase kinase 1 (Homo sapiens)
Condition Notes: at 1 µM
Description: Millipore: Percentage of residual kinase activity of MAP2K1 at 1uM relative to control. Control inhibitor: Phosphoric acid* at 0.3uM. Buffer: 50 mM Tris pH 7.5, 0.2 mM EGTA, 0.1% ?-mercaptoethanol, 0.01% Brij-35
Entries and their residual activity
Measured Attribute: residual activity (%)

{"columns": ["Structure", "Measured Attribute", "Endpoint Value"],
 "data": [
  ["O=C1c2ccccc2-[n+]2ccc3c([nH]c4ccccc43)c21", "residual activity", 97],
  ["Ic1cccc(CSc2nnc(-c3ccncc3)o2)c1", "residual activity", 69],
  ["Nc1nc(Nc2ccc(S(N)(=O)=O)cc2)nn1C(=S)Nc1c(F)cccc1F", "residual activity", 16],
  ["CO[C@H]1[C@@H](OC)C[C@H](C)[C@@H](OC)C2=CC(=O)C=C(NC(=O)/C(C)=C/C=C/[C@H](OC)[C@@H](OC(N)=O)/C(C)=C/[C@@H]1C)C2=O", "residual activity", 102],
  ["COc1ccc(CNc2nc(N(CCO)CCO)nc3c2ncn3C(C)C)cc1", "residual activity", 103]
]}
